Experiment: Study 2 part 1: effect of aging on pharmacokinetics, 50 mg once daily for 14 days
Assay type: in vivo, human
Settings: male, human, plasma, oral, 50 mg, 50 mg once daily, cohort B ≥75 y, day 14; mean (CV%)
experimentalEndpoint: Cmax (ng/mL)
Return type: number; implicit unit ng/mL.

Give the measured Cmax for O=c1nc(OC[C@@H]2COCCO2)cc2n1CCc1cc(C#CC3CC3)ccc1-2 1960

====

Experiment: Study 1 SAD part: plasma pharmacokinetics after single oral doses
Type: in vivo, human
Settings: male, human, plasma, oral; after single administration, 10 to 800 mg; read-out: arithmetic mean apparent terminal half-life (t1/2,λz) range
experimentalEndpoint: half-life

Give the measured half-life for O=c1nc(OC[C@@H]2COCCO2)cc2n1CCc1cc(C#CC3CC3)ccc1-2 [GLPG1205] 30.1 to 140 h

====

Assay: Study 2 part 1: effect of aging on pharmacokinetics, 50 mg once daily for 14 days
Assay type: in vivo, human
Settings: male, human, plasma, oral, 50 mg, 50 mg once daily, cohort A 65-74 y, day 14; mean (CV%)
Procedure: During study 2, GLPG1205 50 mg or matching placebo was administered as capsules in the morning 30 minutes after the start of a standard breakfast. Subjects were kept in‐house from the evening of day –1 to ≈26 hours after the first dose (day 2), and from the evening of day 13 until day 15. […] GLPG1205 plasma concentrations were determined using a validated liquid chromatography with tandem mass spectrometry method. […] The limit of quantification of the assay in the plasma samples was set at 1 ng/mL. […]
experimentalEndpoint: Cmax (ng/mL)
Return type: number; implicit unit ng/mL.

Give the measured Cmax for O=c1nc(OC[C@@H]2COCCO2)cc2n1CCc1cc(C#CC3CC3)ccc1-2 2750

====

Test: Study 1 SAD part: plasma pharmacokinetics after single oral doses
Type: in vivo, human
Settings: male, human, plasma, oral; single 30 mg; arithmetic mean (CV%), N = 5; read-out: t1/2,λz (converted)
experimentalEndpoint: half-life (h)
Return type: number; implicit unit h.

Give the measured half-life for O=c1nc(OC[C@@H]2COCCO2)cc2n1CCc1cc(C#CC3CC3)ccc1-2 30.1

====

Assay: Study 1 SAD part: plasma pharmacokinetics after single oral doses
Type: in vivo, human
Settings: male, human, plasma, oral; single 200 mg; arithmetic mean (CV%)
experimentalEndpoint: Cmax (ng/mL)
Return type: number; implicit unit ng/mL.

Give the measured Cmax for O=c1nc(OC[C@@H]2COCCO2)cc2n1CCc1cc(C#CC3CC3)ccc1-2 2200

====

Experiment: Study 1 SAD part: plasma pharmacokinetics after single oral doses
Type: in vivo, human
Details: male, human, plasma, oral; single 600 mg; arithmetic mean (CV%), N = 3; read-out: t1/2,λz (converted)
experimentalEndpoint: half-life
Provide the measurement as a number trailed by its unit.

Give the measured half-life for O=c1nc(OC[C@@H]2COCCO2)cc2n1CCc1cc(C#CC3CC3)ccc1-2 75 h

====

Assay: Study 1 SAD part: plasma pharmacokinetics after single oral doses
Type: in vivo, human
Conditions: male, human, plasma, oral; single 30 mg; arithmetic mean (CV%); read-out: AUC0‐24h
experimentalEndpoint: AUC

Give the measured AUC for O=c1nc(OC[C@@H]2COCCO2)cc2n1CCc1cc(C#CC3CC3)ccc1-2 4470 ng·h/mL

====

Test: Study 1 MAD part: plasma and urine pharmacokinetics, once daily for 14 days
Assay type: in vivo, human
Settings: male, human, plasma, oral, 100 mg, 100 mg once daily, day 14; dosing interval 24 hours; mean (CV%)
experimentalEndpoint: AUC (ng·h/mL)
Return type: number; implicit unit ng·h/mL.

Give the measured AUC for O=c1nc(OC[C@@H]2COCCO2)cc2n1CCc1cc(C#CC3CC3)ccc1-2 82700
